B1: TPR 5TU (parent)
chain: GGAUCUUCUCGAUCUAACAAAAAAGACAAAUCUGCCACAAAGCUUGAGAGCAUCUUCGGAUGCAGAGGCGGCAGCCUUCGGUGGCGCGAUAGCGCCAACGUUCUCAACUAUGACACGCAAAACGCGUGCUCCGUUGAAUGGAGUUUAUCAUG

# Variants of: B1
# test details: polymerase ribozyme fitness, log enrichment relative to wild type (log ratio); higher = more active; in vitro selection for triplet polymerase activity
Fewer inactive variants are shown than the library holds.
Each entry below carries its recorded polymerase ribozyme fitness (log ratio).
Please state the value as a number alone, without comment.

Some solved cases for reference:
>>> assay_value("C76A A97G")
-1.4
>>> assay_value("C93A A110U")
-3.99
>>> assay_value("C76A")
-0.118
>>> assay_value("C79U C87G")
-3.61

// lookup polymerase ribozyme fitness (log ratio) for C38U G58C C96U A98G 0.385

// lookup polymerase ribozyme fitness (log ratio) for C69U A106C -2.21

// lookup polymerase ribozyme fitness (log ratio) for C18G C38A C93U C105U A113C -4.17

// lookup polymerase ribozyme fitness (log ratio) for A26U G62U U135A -2.77

// lookup polymerase ribozyme fitness (log ratio) for A17G G62C G81A -1.76

// lookup polymerase ribozyme fitness (log ratio) for A17C U55A G59A A60G C96A G143U -3.41

// lookup polymerase ribozyme fitness (log ratio) for C18U A21C U55A -0.649
